# subjectOfTest: Ferritin light chain (Equus caballus) (UniProt P02791)
# Sequence (P02791 2-175 limits assumed): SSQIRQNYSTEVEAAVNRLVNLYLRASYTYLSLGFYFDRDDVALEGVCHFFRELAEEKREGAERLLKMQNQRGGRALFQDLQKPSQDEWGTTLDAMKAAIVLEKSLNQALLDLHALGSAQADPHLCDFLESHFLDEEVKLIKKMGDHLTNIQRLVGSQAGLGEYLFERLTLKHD
# measurementDescription: qHTS Validation Assay for Identification of Novel General Anesthetics (AID 2323)
# runParameters: horse apoferritin, anesthetic-site fluorescent probe displacement; series mostly up to 76.9 µM
Results filed as inconclusive are left out. Active and inactive are the calls of the source. The call rests on the fitted dose curve; in most records, active means well fitted curve in the direction sought with a large enough effect; inconclusive means small, poorly fitted or top-dose-only effect, or another doubt; inactive means no such curve, though single readings can be large or run the other way.

| molecule | outcome |
| --- | --- |
| Cc1cccc(/C=C/c2ccccc2)n1 | inactive |
| S=C(Nc1ccccc1)Nc1nccs1 | inactive |
| Cc1cccc(C)c1NC(=O)C[N+](C)(C)C | inactive |
| Cc1ccc(OCC(O)C(C)NC(C)C)c2c1CCC2 (stereo not given) | inactive |
| Cn1cnc2c(NC3CCCC3)ncnc21 | inactive |
| COc1cc2c(cc1C(F)(F)F)N(C(=O)Nc1cc(F)cc(-c3cccnc3)c1)CC2 | inactive |
| NCCNS(=O)(=O)c1cccc2cnccc12 | inactive |
| COc1ccccc1NC(=O)Nc1nc(-c2cccnc2)nc2ccccc12 | inactive |
| COC(=O)c1c(-c2cc(OC)c(OC)c(OC)c2)c2ccnc(OCc3ncccn3)c2c(=O)n1Cc1ccnc(C)c1 | inactive |
| COc1[nH]c2ccc(F)cc2c1C(=O)OCC1CCN(CCNS(C)(=O)=O)CC1 | inactive |

src = PubChem BioAssay (NCATS)
